Reference source: the OligoGym collection

details: siRNA; also: test system not given here
HELM strings list units from the 5' end as sugar, base in round brackets, then linkage (d deoxyribose, r ribose, m 2'-O-methyl, p phosphodiester). Strings are as the collection lists them, not checked against the first reports. ss, as = sense and antisense strand; [fl2r] = 2'-fluoro
Measured target mRNA knockdown, listed per entry.
quantity-measured: target mRNA knockdown (%)

1. RNA1{r(C)p.r(G)p.m(C)p.r(C)p.r(C)p.m(C)p.r(C)p.r(C)p.r(U)p.m(C)p.r(A)p.r(A)p.r(G)p.r(C)p.m(U)p.r(A)p.r(C)p.r(C)p.r(G)p.r(T)p.r(T)}|RNA2{r(C)p.r(G)p.r(G)p.m(U)p.r(A)p.r(G)p.r(C)p.r(U)p.m(U)p.r(G)p.r(A)p.r(G)p.r(G)p.r(G)p.r(G)p.r(G)p.r(G)p.r(C)p.r(G)p.r(T)p.r(T)}$$$RNA1{StrandType:ss}|RNA2{StrandType:as}$; 72
2. RNA1{r(U)p.[fl2r](U)p.r(A)p.r(C)p.r(C)p.r(C)p.r(C)p.r(G)p.r(A)p.r(U)p.r(U)p.r(C)p.r(A)p.r(G)p.r(C)p.r(C)p.r(U)p.r(C)p.r(U)p.r(T)p.r(T)}|RNA2{r(A)p.r(G)p.r(A)p.r(G)p.r(G)p.r(C)p.r(U)p.r(G)p.r(A)p.r(A)p.r(U)p.r(C)p.r(G)p.r(G)p.r(G)p.r(G)p.r(U)p.[fl2r](A)p.r(A)p.r(T)p.r(T)}$$$RNA1{StrandType:ss}|RNA2{StrandType:as}$; 69
3. RNA1{r(A)p.r(U)p.r(C)p.r(A)p.r(G)p.r(A)p.r(G)p.r(G)p.r(G)p.r(A)p.r(G)p.r(G)p.r(U)p.r(C)p.r(U)p.m(U)p.r(A)p.r(G)p.r(A)p.r(T)p.r(T)}|RNA2{r(U)p.r(C)p.m(U)p.r(A)p.r(A)p.r(G)p.r(A)p.r(C)p.r(C)p.r(U)p.r(C)p.r(C)p.r(C)p.r(U)p.r(C)p.r(U)p.r(G)p.r(A)p.r(U)p.r(T)p.r(T)}$$$RNA1{StrandType:ss}|RNA2{StrandType:as}$; 69
